Ref: patent US11186572B2

Molecular target: PgQC (Porphyromonas gingivalis)
Construct: Ki; RA (average residual QC activity of PgQC); other: c = 1 μM; other: c = 1.5 μM; other: c = 10 μM; other: c = 100 μM; other: c = 12 μM; RA; fused on or other part: N-terminal His tag from pET28a(+), cleaved off by thrombin before the enzymatic characterisation
Experiment: biochemical
Design: species or system P. gingivalis
Conditions: read-out: RA (average residual QC activity of PgQC)
Description: The assay consists of varying concentration of the fluorogenic substrate and 0.5 U pyroglutaminyl aminopeptidase in 50 mM Tris-HCl, 50 mM NaCl at pH 8.0. […] RA refers to the average residual QC activity of PgQC measured in the presence of a concentration c of the respective compound. Ki refers to the average Ki values measured as described above, and Std(Ki) refers to the standard deviation of Ki.
Measured remaining activity at 10 µM values are reported for all entries that follow.
Respond with the bare value in %.

Here are 5 compounds together with their reported answers.
In [3]: df
Out[3]:
                                   compound  test_result
0  COc1cc(OC)cc(C(=O)N2CCc3[nH]cnc3C2)c1 [MWT-S-00429]           16
1  O=C(c1cc(F)c(F)c(F)c1)N1CCc2[nH]cnc2C1 [MWT-S-00435]           16
2  O=C(c1cc(Cl)cc(Cl)c1)N1CCc2[nH]cnc2C1 [MWT-S-00431]            3
3  O=C(c1cccc(Cl)c1)N1CCc2[nH]cnc2C1 [MWT-S-00425]            5
4  Cc1ccc(CN2CCc3[nH]cnc3C2)cc1 [MWT-S-00420]           16

Here's the next entry for you.
May I ask what remaining activity at 10 µM has been recorded for Clc1ccc(CN2CCc3[nH]cnc3C2)cc1Cl [MWT-S-00423] ?
8

* * *

Form field: remaining activity at 10 µM (one value per entry).
Biological target: PgQC (Porphyromonas gingivalis)
Construct: Ki; RA (average residual QC activity of PgQC); other: c = 1 μM; other: c = 1.5 μM; other: c = 10 μM; other: c = 100 μM; other: c = 12 μM; RA; fused on or other part: N-terminal His tag from pET28a(+), cleaved off by thrombin before the enzymatic characterisation
Assay: biochemical
Parameters: species or system P. gingivalis
Details: read-out: RA (average residual QC activity of PgQC)
Write it as a number; the unit % goes unstated.

In [3]: df
Out[3]:
                  smiles_representation           measured_attribute  unit_descriptor  test_result
0  O=C(c1ccc2c(c1)OCO2)N1CCc2[nH]cnc2C1  remaining activity at 10 µM                %           13
1   O=C(c1ccc2ccccc2c1)N1CCc2[nH]cnc2C1  remaining activity at 10 µM                %            4
2      c1ccc(CN2CCc3[nH]cnc3C23COC3)cc1  remaining activity at 10 µM                %           22
3         Clc1ccc(CN2CCc3[nH]cnc3C2)cc1  remaining activity at 10 µM                %           11

# context switch: different molecule, same remaining activity at 10 µM
Quick one: remaining activity at 10 µM of COc1ccc(C(=O)N2CCc3[nH]cnc3C2)cc1OC ?
26
